# Experimental target: recombinant soluble homotrimeric HA of A/South Carolina/1/18 (H1N1) (Influenza A virus A/South Carolina/1/18 (H1N1))
# Assay name: trimeric HA microarray, transfection supernatant set 5
# Setup conditions: remark: other sources report otherwise
Measured metric: Trimeric HA Binding: RLU (RLU)
Provide the reading as a plain figure in RLU.

# Trimeric HA Binding: RLU (binder: TCN-541 (5062_M11) (antibody, V domains shown) VH: QVQLQESGPGLVKPSETLSLTCTVSGGSINSYYWNWIRQPPGKGLEWIGYIYHSGSTNYNPSLKSRVTISVDTSKNQFSLQLSSVTAADTAVYYCARLRTDYGDPDSVYYYGMDVWGQGTTVTVSS VL: SYELTQPPSVSVSPGQTARITCSGDALPKQNAYWYQQKPGQAPVLLIYKDSERPSGIPERFSGSSSGTTVTLTISGVQAEDEADYYCQSADSSGTSWVFGGGTKLTVL ) is 2580

# Trimeric HA Binding: RLU (binder: TCN-545 (5082_I15) (antibody, V domains shown) VH: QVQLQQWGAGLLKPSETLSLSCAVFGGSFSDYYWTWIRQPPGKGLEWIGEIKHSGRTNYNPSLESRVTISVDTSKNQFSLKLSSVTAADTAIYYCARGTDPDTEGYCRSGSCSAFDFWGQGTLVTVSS VL: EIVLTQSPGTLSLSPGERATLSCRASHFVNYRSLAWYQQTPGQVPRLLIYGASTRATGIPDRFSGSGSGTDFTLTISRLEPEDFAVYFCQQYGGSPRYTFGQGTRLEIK ) is 900
